- target-entity: UniProt:A0A6H1Z2L5
- test-name: cell-based
- recorded-conditions: percent of maximum efficacy determined for TCDD; COS-7 cells, 24 h exposure; None = no agonistic response significantly different from solvent; read-out: Ahr1a Relative Emax (%)
readout-kind: Emax (%)

[
  {
    "compound": "Cc1ccc2ccc3c4ccccc4ccc3c2c1 [3-MC, 3-Methylchrysene]",
    "result-units": "%",
    "observed-result": 111
  },
  {
    "compound": "COc1cccc2ccc3c4ccccc4ccc3c12 [4-MOC, 4-Methoxychrysene]",
    "result-units": "%",
    "observed-result": 83.8
  },
  {
    "compound": "COc1ccc2c(ccc3c4ccccc4ccc23)c1 [2-MOC, 2-Methoxychrysene]",
    "result-units": "%",
    "observed-result": 95.9
  },
  {
    "compound": "Cc1cc2c3ccccc3ccc2c2ccccc12 [6-MC, 6-Methylchrysene]",
    "result-units": "%",
    "observed-result": 90.6
  }
]

###

Each entry below carries its recorded Emax.
- target-entity: Atlantic cod Ahr2a (Gadus morhua)
- Sequence (A0A6H1Z3G8 1-1127): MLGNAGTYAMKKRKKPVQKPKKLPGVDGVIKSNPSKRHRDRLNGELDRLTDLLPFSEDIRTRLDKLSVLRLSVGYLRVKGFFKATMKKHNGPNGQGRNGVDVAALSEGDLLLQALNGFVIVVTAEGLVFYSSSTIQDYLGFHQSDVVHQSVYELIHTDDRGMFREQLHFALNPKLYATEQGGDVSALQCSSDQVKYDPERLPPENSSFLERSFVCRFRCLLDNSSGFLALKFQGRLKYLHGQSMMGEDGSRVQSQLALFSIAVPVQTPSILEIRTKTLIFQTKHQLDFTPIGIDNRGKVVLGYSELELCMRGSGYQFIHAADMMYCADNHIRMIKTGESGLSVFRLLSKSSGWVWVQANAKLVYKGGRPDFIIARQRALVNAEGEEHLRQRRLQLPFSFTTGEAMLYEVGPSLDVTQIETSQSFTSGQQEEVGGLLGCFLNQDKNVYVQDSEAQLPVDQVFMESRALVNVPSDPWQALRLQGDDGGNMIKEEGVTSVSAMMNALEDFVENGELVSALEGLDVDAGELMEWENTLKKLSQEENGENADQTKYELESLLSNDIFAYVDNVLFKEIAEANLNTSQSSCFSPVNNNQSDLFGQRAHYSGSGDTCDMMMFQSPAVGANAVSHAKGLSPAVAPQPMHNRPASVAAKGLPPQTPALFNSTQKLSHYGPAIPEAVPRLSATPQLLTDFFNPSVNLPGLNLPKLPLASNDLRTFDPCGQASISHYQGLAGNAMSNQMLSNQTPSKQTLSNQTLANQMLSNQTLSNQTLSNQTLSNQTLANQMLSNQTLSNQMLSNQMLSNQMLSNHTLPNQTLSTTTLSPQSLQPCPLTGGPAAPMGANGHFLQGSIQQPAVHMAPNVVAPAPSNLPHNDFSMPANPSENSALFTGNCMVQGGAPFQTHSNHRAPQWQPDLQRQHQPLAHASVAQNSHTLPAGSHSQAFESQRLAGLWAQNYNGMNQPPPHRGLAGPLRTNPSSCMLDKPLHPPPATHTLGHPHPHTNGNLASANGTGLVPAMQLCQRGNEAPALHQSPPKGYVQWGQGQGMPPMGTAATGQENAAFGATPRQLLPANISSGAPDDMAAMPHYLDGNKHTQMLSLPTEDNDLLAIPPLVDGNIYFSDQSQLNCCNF
- test-name: cell-based
- recorded-conditions: COS-7, read-out: Ahr2a Relative Emax (%)
readout-kind: Emax

[
  {
    "compound": "Clc1cc2c(cc1Cl)Oc1cc(Cl)c(Cl)cc1O2 [TCDD, 2,3,7,8-Tetrachlorodibenzo-p-dioxin, reference compound]",
    "target-entity": "Atlantic cod Ahr2a (Gadus morhua)",
    "observed-result": "99.4%"
  },
  {
    "compound": "Cc1cccc2c1ccc1c3ccccc3ccc21 [1-MC, 1-Methylchrysene]",
    "target-entity": "Atlantic cod Ahr2a (Gadus morhua)",
    "observed-result": "43.6%"
  },
  {
    "compound": "Oc1cccc2c1ccc1c3ccccc3ccc21 [1-COH, Chrysene-1-ol]",
    "target-entity": "Atlantic cod Ahr2a (Gadus morhua)",
    "observed-result": "72.8%"
  },
  {
    "compound": "Oc1ccc2c(ccc3c4ccccc4ccc23)c1 [2-COH, Chrysene-2-ol]",
    "target-entity": "Atlantic cod Ahr2a (Gadus morhua)",
    "observed-result": "40.8%"
  },
  {
    "compound": "c1ccc2c(c1)cc1ccc3cccc4ccc2c1c34 [BAP, Benzo[a]pyrene]",
    "target-entity": "Atlantic cod Ahr2a (Gadus morhua)",
    "observed-result": "103%"
  }
]

###

# Emax values compiled below
- target-entity: UniProtKB A0A6H1Z3G8
- test-name: cell-based
- recorded-conditions: COS-7; Supplementary Table S5; read-out: Efficacy (Emax, %) Ahr2a
readout-kind: Emax (%)

[
  {
    "chem-smiles": "Cc1ccc2c(ccc3c4ccccc4ccc23)c1",
    "observed-result": 127
  },
  {
    "chem-smiles": "c1ccc2c(c1)ccc1c3ccccc3ccc21",
    "observed-result": 3.6
  },
  {
    "chem-smiles": "COc1ccc2c(ccc3c4ccccc4ccc23)c1",
    "observed-result": 114
  },
  {
    "chem-smiles": "Cc1ccc2ccc3c4ccccc4ccc3c2c1",
    "observed-result": 102
  }
]

###

Catalogue of EC50 values
- target-entity: Atlantic cod Ahr1a (Gadus morhua, UniProt A0A6H1Z2L5)
- Sequence (A0A6H1Z2L5 1-957): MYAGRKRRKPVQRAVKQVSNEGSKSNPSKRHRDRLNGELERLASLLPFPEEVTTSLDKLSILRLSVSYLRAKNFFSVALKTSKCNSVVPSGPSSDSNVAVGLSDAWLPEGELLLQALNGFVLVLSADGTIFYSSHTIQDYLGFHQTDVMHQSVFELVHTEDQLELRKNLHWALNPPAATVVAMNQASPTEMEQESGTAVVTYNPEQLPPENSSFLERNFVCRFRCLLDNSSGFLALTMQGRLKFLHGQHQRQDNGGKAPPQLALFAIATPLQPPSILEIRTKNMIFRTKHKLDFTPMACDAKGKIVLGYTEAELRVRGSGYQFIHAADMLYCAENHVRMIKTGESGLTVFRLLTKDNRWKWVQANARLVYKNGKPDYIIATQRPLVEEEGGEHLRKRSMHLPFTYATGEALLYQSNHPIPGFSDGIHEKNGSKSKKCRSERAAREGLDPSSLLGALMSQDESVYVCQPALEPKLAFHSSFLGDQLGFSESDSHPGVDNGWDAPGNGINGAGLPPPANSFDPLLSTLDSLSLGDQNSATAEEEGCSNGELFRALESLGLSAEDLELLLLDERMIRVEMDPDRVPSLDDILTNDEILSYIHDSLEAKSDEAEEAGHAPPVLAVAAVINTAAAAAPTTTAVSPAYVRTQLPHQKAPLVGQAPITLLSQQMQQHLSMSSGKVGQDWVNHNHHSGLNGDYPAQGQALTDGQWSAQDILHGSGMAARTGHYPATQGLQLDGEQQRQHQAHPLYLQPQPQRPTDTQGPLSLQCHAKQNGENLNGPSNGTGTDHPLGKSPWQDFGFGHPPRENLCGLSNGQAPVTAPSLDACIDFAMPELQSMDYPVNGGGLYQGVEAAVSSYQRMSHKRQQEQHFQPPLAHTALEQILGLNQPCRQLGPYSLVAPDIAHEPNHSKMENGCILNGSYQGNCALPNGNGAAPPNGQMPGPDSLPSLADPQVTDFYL
- Sequence (A0A8C5CZZ9 1-645 partner): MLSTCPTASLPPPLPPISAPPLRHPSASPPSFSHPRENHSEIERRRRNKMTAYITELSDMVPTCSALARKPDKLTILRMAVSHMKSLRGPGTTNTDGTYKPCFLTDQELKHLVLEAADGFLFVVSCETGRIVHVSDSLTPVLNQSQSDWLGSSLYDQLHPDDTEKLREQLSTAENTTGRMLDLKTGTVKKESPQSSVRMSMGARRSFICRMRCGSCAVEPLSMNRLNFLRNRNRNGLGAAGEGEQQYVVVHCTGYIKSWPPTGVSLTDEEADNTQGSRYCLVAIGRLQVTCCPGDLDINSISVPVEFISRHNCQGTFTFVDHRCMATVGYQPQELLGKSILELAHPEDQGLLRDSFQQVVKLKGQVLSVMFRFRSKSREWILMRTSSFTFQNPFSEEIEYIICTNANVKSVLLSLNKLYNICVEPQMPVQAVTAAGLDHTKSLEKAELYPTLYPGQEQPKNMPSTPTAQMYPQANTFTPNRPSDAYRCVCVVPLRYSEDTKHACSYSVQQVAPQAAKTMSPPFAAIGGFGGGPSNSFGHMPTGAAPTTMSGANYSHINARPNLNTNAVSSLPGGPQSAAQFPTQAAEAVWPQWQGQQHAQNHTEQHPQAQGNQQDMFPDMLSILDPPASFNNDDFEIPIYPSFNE
- test-name: cell-based
- recorded-conditions: COS-7 cells, 24 h exposure; read-out: Ahr1a EC50

[
  {
    "compound": "Cc1cccc2ccc3c4ccccc4ccc3c12 [4-MC, 4-Methylchrysene]",
    "result-units": "nM",
    "EC50": 120
  },
  {
    "compound": "COc1cc2ccc3c4ccccc4ccc3c2cc1OC [2,3-DMOC, 2,3-Dimethoxychrysene]",
    "result-units": "nM",
    "EC50": 199
  },
  {
    "compound": "COc1ccc2ccc3c4ccccc4ccc3c2c1 [3-MOC, 3-Methoxychrysene]",
    "result-units": "nM",
    "EC50": 195
  },
  {
    "compound": "Oc1ccc2ccc3c4ccccc4ccc3c2c1 [3-COH, Chrysene-3-ol]",
    "result-units": "nM",
    "EC50": 345
  },
  {
    "compound": "COc1cccc2c1ccc1c3ccccc3ccc21 [1-MOC, 1-Methoxychrysene]",
    "result-units": "nM",
    "EC50": 102
  }
]
